The measured values listed here are drawn from patent US20080188659A1.

system-name: mouse 11b-HSD1 (Mus musculus, UniProt P50172)
Construct: expressed in transfected cells
Sequence (P50172 whole entry): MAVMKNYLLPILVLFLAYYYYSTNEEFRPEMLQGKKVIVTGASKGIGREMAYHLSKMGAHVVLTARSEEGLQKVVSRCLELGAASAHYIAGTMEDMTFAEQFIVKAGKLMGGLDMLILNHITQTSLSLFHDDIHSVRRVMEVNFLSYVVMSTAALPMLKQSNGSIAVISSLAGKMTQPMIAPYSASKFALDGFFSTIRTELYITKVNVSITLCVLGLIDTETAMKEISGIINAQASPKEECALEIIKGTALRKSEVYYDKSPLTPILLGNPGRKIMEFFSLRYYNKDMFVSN
method-description: cell-based assay, stable CHO cell line expressing mouse 11b-HSD1, cortisol measured with DiscoverX HitHunter Cortisol Assay
experimental-parameters: CHO cells expressing mouse 11b-HSD1; media containing 10% delipidized human serum; 500 nM cortisone, 120 minutes; read-out: Mouse + Serum 1C50
metric-name: IC50 (µM)

Illustrative cases are given below, each with its answer.
{"smiles-string": "NC(c1ccc(S(=O)(=O)N2CCCCC2)cc1)(C(F)(F)F)C(F)(F)F", "IC50 / µM": 0.731}
{"smiles-string": "NC(c1ccc(C(=O)N2CCCCC2)cc1)(C(F)(F)F)C(F)(F)F", "IC50 / µM": 8.38}
{"smiles-string": "CCN(CC)S(=O)(=O)c1ccc(C(N)(C(F)(F)F)C(F)(F)F)cc1", "IC50 / µM": 0.645}
{"smiles-string": "NC(c1cccc(S(=O)(=O)N2CCCCC2)c1)(C(F)(F)F)C(F)(F)F", "IC50 / µM": 3.32}

a. CCN(CC)C(=O)c1cccc(C(N)(C(F)(F)F)C(F)(F)F)c1
b. NC(c1cccc(C(=O)N2CCCCC2)c1)(C(F)(F)F)C(F)(F)F
c. CCN(CC)C(=O)c1ccc(C(N)(C(F)(F)F)C(F)(F)F)cc1
Challenge: Place the items in sequence of falling IC50. Answer by listing the labels in the requested order.
Response given: b, a, c

###

The entries below are paired with their reported IC50.
system-name: human 11b-HSD1 (Homo sapiens, UniProt P28845)
Construct: expressed in transfected cells
Sequence (P28845 whole entry): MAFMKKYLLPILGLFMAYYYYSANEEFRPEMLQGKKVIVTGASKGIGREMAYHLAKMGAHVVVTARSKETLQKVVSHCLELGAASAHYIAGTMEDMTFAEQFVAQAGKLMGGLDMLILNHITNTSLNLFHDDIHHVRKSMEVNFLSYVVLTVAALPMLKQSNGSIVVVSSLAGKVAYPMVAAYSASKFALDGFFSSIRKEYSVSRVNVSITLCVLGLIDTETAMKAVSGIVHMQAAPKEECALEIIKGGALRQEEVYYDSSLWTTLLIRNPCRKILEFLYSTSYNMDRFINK
method-description: cell-based assay, stable CHO cell line expressing human 11b-HSD1, cortisol measured with DiscoverX HitHunter Cortisol Assay
experimental-parameters: CHO cells expressing human 11b-HSD1; serum-free media; 500 nM cortisone, 120 minutes; read-out: Human 1C50

Challenge: Requested field: IC50. Item: C[C@@H]1CN(c2ccc(C(N)(C(F)(F)F)C(F)(F)F)cc2C(F)(F)F)CCN1S(=O)(=O)c1cccc(C(C)(O)C(F)(F)F)c1 (stereo partly shown)
Response given: 0.08 µM

Challenge: Given the compound CC(C)(C)OC(=O)N(Cc1ccccc1)S(=O)(=O)c1cccc(C(N)(C(F)(F)F)C(F)(F)F)c1 , what is its reported IC50?
Response given: > 10 µM

Challenge: # lookup: IC50 of COc1ccc(N(C(=O)OC(C)(C)C)S(=O)(=O)c2ccc(C(N)(C(F)(F)F)C(F)(F)F)cc2)cc1
Response given: > 10 µM

Challenge: What IC50 value was documented for this compound, COc1ccc(N(C(=O)OC(C)(C)C)S(=O)(=O)c2cccc(C(N)(C(F)(F)F)C(F)(F)F)c2)cc1 ?
Response given: > 10 µM
